# System: NCI-H596
# Assay summary: relative viability (nuclei count vs DMSO), 5 days (fraction); higher = more cells survive
# Experimental setup: first compound 2.53 µM
Reported metric: relative viability
Answer with a bare number; do not write a unit.

Compound	Assay target	relative viability
O=c1cc(-c2cccc3c2Sc2ccccc2S3)oc(N2CCOCC2)c1 + CS(=O)(=O)CCNCc1ccc(-c2ccc3ncnc(Nc4ccc(OCc5cccc(F)c5)c(Cl)c4)c3c2)o1 [Lapatinib] (partner 2 µM)	NCI-H596	0.894

Give relative viability (NCI-H596) of the following compound: O=c1cc(-c2cccc3c2Sc2ccccc2S3)oc(N2CCOCC2)c1 + Cc1nc(NC(=O)N2CCC[C@H]2C(N)=O)sc1-c1ccnc(C(C)(C)C(F)(F)F)c1 [Alpelisib] (partner 2 µM) 0.469

Give relative viability (NCI-H596) of the following compound: O=c1cc(-c2cccc3c2Sc2ccccc2S3)oc(N2CCOCC2)c1 + CS(=O)(=O)N1CCN(Cc2cc3nc(-c4cccc5[nH]ncc45)nc(N4CCOCC4)c3s2)CC1 [Pictilisib] (partner 1 µM) 0.371

---

# System: NCI-H1650
# Assay summary: relative viability (nuclei count vs DMSO), 5 days (fraction); higher = more cells survive
# Experimental setup: first compound 0.8 µM
The entries below come with measured relative viability values attached.

Solved cases (4 shown):
Compound	Reported value
O=c1cc(-c2cccc3c2Sc2ccccc2S3)oc(N2CCOCC2)c1 + COc1cc2c(Oc3ccc(NC(=O)C4(C(=O)Nc5ccc(F)cc5)CC4)cc3F)ccnc2cc1OCCCN1CCOCC1 [Foretinib] (partner 0.25 µM)	0.998
O=c1cc(-c2cccc3c2Sc2ccccc2S3)oc(N2CCOCC2)c1 + CC(=O)Nc1cccc(-n2c(=O)n(C3CC3)c(=O)c3c(Nc4ccc(I)cc4F)n(C)c(=O)c(C)c32)c1 [Trametinib] (partner 0.02 µM)	0.503
O=c1cc(-c2cccc3c2Sc2ccccc2S3)oc(N2CCOCC2)c1 + CC(C)C[C@H](NC(=O)[C@H](Cc1ccccc1)NC(=O)c1cnccn1)B(O)O [Bortezomib] (partner 0.002 µM)	0.189
O=c1cc(-c2cccc3c2Sc2ccccc2S3)oc(N2CCOCC2)c1 + O=C(CCCCCCC(=O)Nc1ccccc1)NO [Vorinostat] (partner 1 µM)	0.602

Then there is this compound:
// lookup relative viability for COc1nc(C)cnc1NS(=O)(=O)c1cccnc1-c1ccc(-c2nnco2)cc1 [Zibotentan] + CS(=O)(=O)N1CCN(Cc2cc3nc(-c4cccc5[nH]ncc45)nc(N4CCOCC4)c3s2)CC1 [Pictilisib] (partner 1 µM) 0.638

---

# Test system: SW 1573
# Assay summary: relative viability (nuclei count vs DMSO), 5 days (fraction); higher = more cells survive
# Experimental setup: first compound 1 µM
# key: entry, value: relative viability
Note: the reply should be a number with no unit written.

Would you kindly share the measured relative viability for O=c1cc(N2CCOCC2)oc2c(-c3cccc4c3sc3ccccc34)cccc12 + Cc1cc(Nc2cc(N3CCN(C)CC3)nc(Sc3ccc(NC(=O)C4CC4)cc3)n2)n[nH]1 [Tozasertib] (partner 0.1 µM) ? 0.166

Which relative viability value belongs to CCN(CC)CCCCNc1ncc2cc(-c3cc(OC)cc(OC)c3)c(NC(=O)NC(C)(C)C)nc2n1 + O=C(CCCCCCC(=O)Nc1ccccc1)NO [Vorinostat] (partner 1 µM) ? 0.705

What value of relative viability has been reported for the following molecule? O=c1cc(N2CCOCC2)oc2c(-c3cccc4c3sc3ccccc34)cccc12 + CS(=O)(=O)CCNCc1ccc(-c2ccc3ncnc(Nc4ccc(OCc5cccc(F)c5)c(Cl)c4)c3c2)o1 [Lapatinib] (partner 2 µM) 1.14

Please look up its relative viability: O=c1cc(N2CCOCC2)oc2c(-c3cccc4c3sc3ccccc34)cccc12 + CC(=O)Nc1cccc(-n2c(=O)n(C3CC3)c(=O)c3c(Nc4ccc(I)cc4F)n(C)c(=O)c(C)c32)c1 [Trametinib] (partner 0.02 µM) 0.501

For O=c1cc(N2CCOCC2)oc2c(-c3cccc4c3sc3ccccc34)cccc12 + Nc1ncn([C@H]2C[C@H](O)[C@@H](CO)O2)c(=O)n1 [Decitabine] (partner 2 µM) , what is its reported relative viability? 0.665

Tell me the measured relative viability of CCN(CC)CCCCNc1ncc2cc(-c3cc(OC)cc(OC)c3)c(NC(=O)NC(C)(C)C)nc2n1 + CS(=O)(=O)N1CCN(Cc2cc3nc(-c4cccc5[nH]ncc45)nc(N4CCOCC4)c3s2)CC1 [Pictilisib] (partner 1 µM) , please. 0.507

Entry under review: CCN(CC)CCCCNc1ncc2cc(-c3cc(OC)cc(OC)c3)c(NC(=O)NC(C)(C)C)nc2n1 + CC(=O)c1c(C)c2cnc(Nc3ccc(N4CCNCC4)cn3)nc2n(C2CCCC2)c1=O [Palbociclib] (partner 0.5 µM) . Reported relative viability? 0.331

Item under review: CCN(CC)CCCCNc1ncc2cc(-c3cc(OC)cc(OC)c3)c(NC(=O)NC(C)(C)C)nc2n1 + N=C(N)NC(=N)NCCc1ccccc1 [Phenformin] (partner 250 µM) . Reported relative viability? 0.36

Need relative viability of O=c1cc(N2CCOCC2)oc2c(-c3cccc4c3sc3ccccc34)cccc12 + CS(=O)(=O)N1CCN(Cc2cc3nc(-c4cccc5[nH]ncc45)nc(N4CCOCC4)c3s2)CC1 [Pictilisib] (partner 1 µM) , thanks. 0.471

Record request: relative viability value, item O=c1cc(N2CCOCC2)oc2c(-c3cccc4c3sc3ccccc34)cccc12 + COc1cccc2cc(-c3nc([C@H]4CC[C@H](C(=O)O)CC4)n4ncnc(N)c34)[nH]c12 [OSI-027] (partner 0.5 µM) 0.737
